Give IC50 for every item shown.
target: full-length NDM-1 (Klebsiella pneumoniae, UniProt C7C422)
Sequence (C7C422 29-270 limits assumed): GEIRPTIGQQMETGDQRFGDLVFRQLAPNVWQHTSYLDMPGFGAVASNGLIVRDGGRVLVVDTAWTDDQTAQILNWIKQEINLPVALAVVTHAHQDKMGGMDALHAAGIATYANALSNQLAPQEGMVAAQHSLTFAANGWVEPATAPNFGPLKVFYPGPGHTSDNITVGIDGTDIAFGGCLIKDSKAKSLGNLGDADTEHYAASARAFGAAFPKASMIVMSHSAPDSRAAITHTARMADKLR
Answer in µM, number only, no unit symbol.

### Prompt Reported IC50 for O=C(O)C(C(=O)O)c1cc(Cc2nnn[nH]2)sc1Cc1nnn[nH]1 [Compound 4] : what is it?
### Response 280

### Prompt Reported IC50 for COC(=O)c1sc(C(=O)OC)c(OCc2nnn[nH]2)c1OCc1nnn[nH]1 [Compound 3] : what is it?
### Response 980

### Prompt Reported IC50 for O=C(O)C(C(=O)O)c1ccsc1 [Compound 5, 3-thiophenemalonic acid] : what is it?
### Response 610

====

test system: E. coli BL21 (DE3)/pET30a-NDM-1; assay: microbe, parasite or virus in culture; format: cell-based; details: inhibitor at 50.0 µM
Give MICs of meropenem in combination with NDM-1 inhibitors for every item shown.
Answer in µg/mL, number only, no unit symbol.

### Prompt Reported MICs of meropenem in combination with NDM-1 inhibitors for COC(=O)c1sc(C(=O)OC)c(OCc2nnn[nH]2)c1OCc1nnn[nH]1 : what is it?
### Response 32

### Prompt Reported MICs of meropenem in combination with NDM-1 inhibitors for COC(=O)c1sc(C(=O)OC)c(OCc2ccccc2)c1OCc1ccccc1 : what is it?
### Response 256

### Prompt Reported MICs of meropenem in combination with NDM-1 inhibitors for COC(=O)c1cc(OCc2ccccc2)c(C(=O)OC)s1 : what is it?
### Response 256

### Prompt Reported MICs of meropenem in combination with NDM-1 inhibitors for O=C(O)C(C(=O)O)c1ccsc1 : what is it?
### Response 32

### Prompt Reported MICs of meropenem in combination with NDM-1 inhibitors for O=C(O)C(C(=O)O)c1cc(Cc2nnn[nH]2)sc1Cc1nnn[nH]1 : what is it?
### Response 32
